- Tested on: angiotensin II (AII) vasopressor response
- Test summary: AII challenge: antagonism of the vasopressor response of angiotensin II in conscious Okamoto-Aoki SHR
- Type: in vivo, rat (Okamoto-Aoki SHR)
- Condition: Rattus norvegicus, iv, 0.5 h, 1 mg/kg iv; AII .1 ug/kg; 30 min
Where a name gives a salt, the structure may show the parent alone.
Value type: inhibition in vivo at 1 mg/kg (%)

{"Compound": "CCCCc1nc2ccc(C(C)(C)OC)cc2c(=O)n1Cc1ccc(-c2ccccc2-c2nnn[nH]2)cc1 [Example 57]", "Tgt": "angiotensin II (AII) vasopressor response", "Numeric readout": 27}
{"Compound": "CCCCc1nc2ccc(C(C)O)cc2c(=O)n1Cc1ccc(-c2ccccc2-c2nnn[nH]2)cc1 (centres unmarked) [Example 49]", "Tgt": "angiotensin II (AII) vasopressor response", "Numeric readout": 27}
{"Compound": "CCCCc1nc2ccc(C(O)c3ccccc3)cc2c(=O)n1Cc1ccc(-c2ccccc2-c2nnn[nH]2)cc1 (centres unmarked) [Example 54]", "Tgt": "angiotensin II (AII) vasopressor response", "Numeric readout": 30}
{"Compound": "CCCCc1nc2ccc(C(OC)c3ccccc3)cc2c(=O)n1Cc1ccc(-c2ccccc2-c2nnn[nH]2)cc1 (centres unmarked) [Example 56]", "Tgt": "angiotensin II (AII) vasopressor response", "Numeric readout": 43}
{"Compound": "CCCCc1nc2ccc(C(C)(C)O)cc2c(=O)n1Cc1ccc(-c2ccccc2-c2nnn[nH]2)cc1 [Example 61, monosodium salt]", "Tgt": "angiotensin II (AII) vasopressor response", "Numeric readout": 8}

This collection of values is drawn from patent US5405849A.
